testProtocol: Solubility of the salts
experimentalSetup: aqueous solution of 5% glucose, saline or isotonic
recordedEndpoint: solubility (mg/mL)

>  <smilesData>
COc1cc2c3c(c4cccc(O)c4c2cc1OC)[C@H](O)[C@@H]1CCCN1C3.CS(=O)(=O)O

>  <uom>
mg/mL

>  <resultNumber>
11.2

$$$$
>  <smilesData>
COc1cc2c3c(c4ccc(F)cc4c2cc1OC)C[C@@H]1CCCN1C3.CS(=O)(=O)O

>  <uom>
mg/mL

>  <resultNumber>
10.3

$$$$

====

Test system: human non-small cell lung cancer A549 cells
testProtocol: Inhibitory action on the proliferation of A549 cells
Assay type: cell-based
experimentalSetup: 96 hours, TetraColor ONE
Here the recorded A549 proliferation inhibitory action IC50 is given for each entry.
recordedEndpoint: A549 proliferation inhibitory action IC50 (ng/mL)

>  <compound>
CCCC(=O)Oc1ccc2c3c(c4cc(OC)c(OC)cc4c2c1)CN1CCC[C@H]1C3.CS(=O)(=O)O

>  <uom>
ng/mL

>  <resultNumber>
0.86

$$$$
>  <compound>
COc1cc2c3c(c4ccc(OC(C)=O)cc4c2cc1OC)[C@H](O)[C@@H]1CCCN1C3.Cl

>  <uom>
ng/mL

>  <resultNumber>
0.63

$$$$
>  <compound>
COc1cc2c3c(c4ccc(OC(=O)CCCCCCC(=O)Oc5ccc6c7c(c8cc(OC)c(OC)cc8c6c5)CN5CCC[C@H]5[C@H]7O)cc4c2cc1OC)[C@H](O)[C@@H]1CCCN1C3.Cl

>  <uom>
ng/mL

>  <resultNumber>
0.18

$$$$
>  <compound>
COc1cc2c3c(c4ccc(OC(C)=O)cc4c2cc1OC)C[C@@H]1CCCN1C3.CS(=O)(=O)O

>  <uom>
ng/mL

>  <resultNumber>
0.64

$$$$
>  <compound>
COc1cc2c3c(c4ccc(OC(=O)c5ccco5)cc4c2cc1OC)C[C@@H]1CCCN1C3.CS(=O)(=O)O

>  <uom>
ng/mL

>  <resultNumber>
1.3

$$$$
>  <compound>
COC(=O)Oc1ccc2c3c(c4cc(OC)c(OC)cc4c2c1)CN1CCC[C@H]1C3.Cl

>  <uom>
ng/mL

>  <resultNumber>
0.65

$$$$
>  <compound>
COc1cc2c3c(c4ccc(OC(C)=O)cc4c2cc1OC)C(F)[C@@H]1CCCN1C3.Cl (stereo partly shown)

>  <uom>
ng/mL

>  <resultNumber>
0.23

$$$$

====

Tested on: human non-small cell lung cancer A549 cells
testProtocol: Inhibitory action on the proliferation of A549 cells
Assay type: cell-based
experimentalSetup: 96 hours, TetraColor ONE
Tag: 1.0 if measured A549 proliferation inhibitory action IC50 is not below 0.8 ng/mL, 0.0 if it is.

>  <smilesData>
C#CCOC(=O)Oc1ccc2c3c(c4cc(OC)c(OC)cc4c2c1)CN1CCC[C@H]1[C@H]3O.Cl

>  <testSystem>
human non-small cell lung cancer A549 cells

>  <group>
0.0

$$$$
>  <smilesData>
COc1cc2c3c(c4ccc(OC(=O)N5CCC(N6CCCCC6)CC5)cc4c2cc1OC)[C@H](O)[C@@H]1CCCN1C3

>  <testSystem>
human non-small cell lung cancer A549 cells

>  <group>
1.0

$$$$
>  <smilesData>
COc1cc2c3c(c4ccc(OC(=O)N(C)C)cc4c2cc1OC)[C@H](O)[C@@H]1CCCN1C3.Cl

>  <testSystem>
human non-small cell lung cancer A549 cells

>  <group>
1.0

$$$$
>  <smilesData>
COc1cc2c3c(c4ccc(OC(=O)c5ccsc5)cc4c2cc1OC)[C@H](O)[C@@H]1CCCN1C3.Cl

>  <testSystem>
human non-small cell lung cancer A549 cells

>  <group>
0.0

$$$$
>  <smilesData>
COc1cc2c3c(c4ccc(OC(=O)c5cccnc5)cc4c2cc1OC)[C@H](O)[C@@H]1CCCN1C3.Cl

>  <testSystem>
human non-small cell lung cancer A549 cells

>  <group>
0.0

$$$$
>  <smilesData>
CCC(=O)Oc1ccc2c3c(c4cc(OC)c(OC)cc4c2c1)CN1CCC[C@H]1[C@H]3O.Cl

>  <testSystem>
human non-small cell lung cancer A549 cells

>  <group>
0.0

$$$$
>  <smilesData>
COc1cc2c3c(c4ccc(OC(=O)c5ccncc5)cc4c2cc1OC)[C@H](O)[C@@H]1CCCN1C3.Cl

>  <testSystem>
human non-small cell lung cancer A549 cells

>  <group>
0.0

$$$$
>  <smilesData>
COc1cc2c3c(c4ccc(OC(C)=O)cc4c2cc1OC)[C@H](OC(C)=O)[C@@H]1CCCN1C3.Cl

>  <testSystem>
human non-small cell lung cancer A549 cells

>  <group>
1.0

$$$$
>  <smilesData>
CCOC(=O)Oc1ccc2c3c(c4cc(OC)c(OC)cc4c2c1)CN1CCC[C@H]1[C@H]3O.Cl

>  <testSystem>
human non-small cell lung cancer A549 cells

>  <group>
0.0

$$$$
>  <smilesData>
COc1cc2c3c(c4ccc(OC(=O)c5ccco5)cc4c2cc1OC)[C@H](O)[C@@H]1CCCN1C3.Cl

>  <testSystem>
human non-small cell lung cancer A549 cells

>  <group>
0.0

$$$$
>  <smilesData>
COc1cc2c3c(c4ccc(OC(=O)c5ccoc5)cc4c2cc1OC)[C@H](O)[C@@H]1CCCN1C3.Cl

>  <testSystem>
human non-small cell lung cancer A549 cells

>  <group>
1.0

$$$$
>  <smilesData>
CCCCC(=O)Oc1ccc2c3c(c4cc(OC)c(OC)cc4c2c1)CN1CCC[C@H]1C3.CS(=O)(=O)O

>  <testSystem>
human non-small cell lung cancer A549 cells

>  <group>
1.0

$$$$
